System: human Liver-Chip (hepatocyte layer)
Protocol Notes: Liver-Chip immunofluorescence imaging (caspase 3/7, TMRM, AdipoRed/LipidTOX)
Type: cell-based
Measurement Parameters: expanded drug list; donor 1

# Molecule, IF imaging Donor 1
measured = [
    ("CCOC(=O)CN[C@@H](C(=O)N1CC[C@H]1C(=O)NCc1ccc(/C(N)=N\\O)cc1)C1CCCCC1", "No findings"),
    ("O=C(O)Cc1ccccc1Nc1c(Cl)cccc1Cl", "Apoptosis"),
    ("CC(c1cc2ccccc2s1)N(O)C(N)=O (stereo not shown)", "No findings"),
    ("O=C(NC1CCN(CCCCC2(C(=O)NCC(F)(F)F)c3ccccc3-c3ccccc32)CC1)c1ccccc1-c1ccc(C(F)(F)F)cc1 [Lomitapide]", "No findings"),
    ("C=C[C@@H]1C[C@]1(NC(=O)[C@@H]1C[C@@H](Oc2ncc(OC)c3ccc(Cl)cc23)CN1C(=O)[C@@H](NC(=O)OC(C)(C)C)C(C)(C)C)C(=O)NS(=O)(=O)C1CC1", "Apoptosis"),
    ("Nc1c2c(nc3ccccc13)CCCC2", "Apoptosis"),
    ("CC(C(=O)O)c1ccc2oc(-c3ccc(Cl)cc3)nc2c1 (stereo not shown)", "Apoptosis"),
    ("CC[C@H]1OC(=O)[C@H](C)C(=O)[C@H](C)[C@@H](O[C@@H]2O[C@H](C)C[C@H](N(C)C)[C@H]2O)[C@](C)(OC)C[C@@H](C)C(=O)[C@H](C)[C@H]2N(CCCCn3cnc(-c4cccnc4)c3)C(=O)O[C@]12C", "Apoptosis"),
    ("CC(CCc1ccccc1)NCC(O)c1ccc(O)c(C(N)=O)c1 (stereo not shown)", "Apoptosis"),
    ("Cc1cn([C@H]2C=C[C@@H](CO)O2)c(=O)[nH]c1=O", "No findings"),
]
